The measured values listed here are drawn from patent US20180148418A1.

# system name: TNKS1 (Homo sapiens)
# Sequence (O95271 whole entry): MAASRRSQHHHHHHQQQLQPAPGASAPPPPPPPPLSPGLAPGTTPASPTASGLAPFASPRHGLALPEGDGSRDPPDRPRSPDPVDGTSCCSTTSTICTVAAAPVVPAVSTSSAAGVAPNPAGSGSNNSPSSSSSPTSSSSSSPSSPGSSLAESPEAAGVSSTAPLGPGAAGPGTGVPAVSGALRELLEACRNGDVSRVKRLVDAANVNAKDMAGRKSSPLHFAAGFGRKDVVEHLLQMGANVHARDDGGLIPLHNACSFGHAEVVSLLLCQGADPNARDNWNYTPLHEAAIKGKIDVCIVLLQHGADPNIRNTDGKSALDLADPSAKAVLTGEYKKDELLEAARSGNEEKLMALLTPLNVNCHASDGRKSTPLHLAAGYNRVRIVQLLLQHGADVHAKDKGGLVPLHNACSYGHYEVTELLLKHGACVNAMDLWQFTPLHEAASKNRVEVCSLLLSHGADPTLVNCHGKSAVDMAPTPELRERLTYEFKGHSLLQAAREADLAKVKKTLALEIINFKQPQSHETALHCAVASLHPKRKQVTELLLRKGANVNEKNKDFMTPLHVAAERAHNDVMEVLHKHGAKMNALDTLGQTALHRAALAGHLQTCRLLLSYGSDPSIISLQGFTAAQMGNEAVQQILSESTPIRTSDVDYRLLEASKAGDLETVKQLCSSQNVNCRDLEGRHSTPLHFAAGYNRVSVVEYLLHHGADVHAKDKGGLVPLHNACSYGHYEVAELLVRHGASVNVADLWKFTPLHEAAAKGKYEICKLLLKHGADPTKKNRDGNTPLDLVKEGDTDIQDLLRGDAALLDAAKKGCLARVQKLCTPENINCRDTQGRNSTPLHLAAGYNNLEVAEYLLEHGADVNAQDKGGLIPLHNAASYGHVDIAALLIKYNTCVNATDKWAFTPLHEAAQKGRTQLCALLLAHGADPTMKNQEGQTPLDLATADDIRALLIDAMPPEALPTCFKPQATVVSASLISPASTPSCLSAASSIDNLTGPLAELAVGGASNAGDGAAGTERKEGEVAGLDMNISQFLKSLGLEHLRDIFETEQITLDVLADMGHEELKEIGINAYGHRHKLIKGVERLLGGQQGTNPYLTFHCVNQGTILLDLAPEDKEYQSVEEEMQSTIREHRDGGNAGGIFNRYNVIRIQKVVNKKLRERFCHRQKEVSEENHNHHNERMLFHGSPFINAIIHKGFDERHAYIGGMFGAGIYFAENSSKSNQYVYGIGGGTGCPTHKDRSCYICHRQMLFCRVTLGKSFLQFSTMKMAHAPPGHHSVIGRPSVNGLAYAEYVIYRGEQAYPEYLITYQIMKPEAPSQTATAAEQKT
assay endpoint: IC50 (nM)

Some entries whose results are on file:
{"columns": ["structure string", "unit spec", "IC50"],
 "data": [
  ["CNC(=O)c1[nH]cnc1C(=O)N[C@H]1CC[C@@]2(CCN(c3ccc(F)cc3Cl)C2=O)CC1", "nM", 12],
  ["CNC(=O)c1ncoc1C(=O)N[C@H]1CC[C@H](C(=O)Nc2ccc(F)cc2Cl)CC1", "nM", 650],
  ["O=C(NCCN1CC2(CCO2)C1)c1nc[nH]c1C(=O)N[C@H]1CC[C@H](C(=O)Nc2ccc(F)cc2Cl)CC1", "nM", 13],
  ["CNC(=O)c1nc[nH]c1C(=O)N[C@H]1CC[C@H](C(=O)Nc2c(F)cc(F)cc2Cl)CC1", "nM", 77]
]}

[I] O=C(N[C@H]1CC[C@@]2(CCN(c3ccc(F)cc3Cl)C2=O)CC1)c1cnn2c(C(F)(F)F)ccnc12
[II] O=C(N[C@H]1CC[C@@]2(CCN(c3ccc(F)cc3)C2=O)CC1)c1cnn2cccnc12
Of I and II , which shows the smaller IC50 value? # reply format: chosen label I
(I: 71 nM, II: 1200 nM)

====

# system name: TNKS2 (Homo sapiens, UniProt Q9H2K2)
# Sequence (Q9H2K2 1-1166): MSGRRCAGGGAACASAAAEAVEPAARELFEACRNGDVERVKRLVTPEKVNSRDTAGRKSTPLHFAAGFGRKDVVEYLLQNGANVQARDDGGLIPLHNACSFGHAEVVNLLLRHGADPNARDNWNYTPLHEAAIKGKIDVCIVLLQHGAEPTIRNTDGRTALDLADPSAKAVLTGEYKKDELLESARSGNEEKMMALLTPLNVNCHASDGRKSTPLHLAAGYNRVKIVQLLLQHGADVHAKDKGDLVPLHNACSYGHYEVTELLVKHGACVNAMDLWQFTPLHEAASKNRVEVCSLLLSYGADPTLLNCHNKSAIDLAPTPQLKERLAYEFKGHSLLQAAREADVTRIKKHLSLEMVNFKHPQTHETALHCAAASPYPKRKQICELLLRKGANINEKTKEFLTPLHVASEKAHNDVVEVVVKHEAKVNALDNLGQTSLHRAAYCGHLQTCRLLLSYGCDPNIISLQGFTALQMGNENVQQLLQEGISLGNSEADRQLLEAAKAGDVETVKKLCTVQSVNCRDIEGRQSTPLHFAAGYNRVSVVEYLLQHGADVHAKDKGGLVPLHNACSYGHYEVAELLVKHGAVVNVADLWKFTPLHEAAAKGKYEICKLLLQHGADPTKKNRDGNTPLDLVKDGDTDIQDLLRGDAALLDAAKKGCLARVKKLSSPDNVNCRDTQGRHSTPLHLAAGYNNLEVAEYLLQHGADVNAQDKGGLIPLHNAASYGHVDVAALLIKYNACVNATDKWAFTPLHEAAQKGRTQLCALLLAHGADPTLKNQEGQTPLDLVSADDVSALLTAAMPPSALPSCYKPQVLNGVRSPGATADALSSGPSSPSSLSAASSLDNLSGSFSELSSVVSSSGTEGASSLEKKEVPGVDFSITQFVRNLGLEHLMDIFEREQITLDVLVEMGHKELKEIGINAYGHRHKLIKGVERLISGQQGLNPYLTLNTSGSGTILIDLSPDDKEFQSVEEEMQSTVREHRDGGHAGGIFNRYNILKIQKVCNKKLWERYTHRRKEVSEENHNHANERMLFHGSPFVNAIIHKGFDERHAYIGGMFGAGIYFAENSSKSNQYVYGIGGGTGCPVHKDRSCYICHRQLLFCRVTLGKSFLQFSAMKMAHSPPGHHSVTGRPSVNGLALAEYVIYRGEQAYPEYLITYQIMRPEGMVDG
pIC50: −log10 of the molar value.
assay endpoint: pIC50

Some entries whose results are on file:
{"columns": ["compound", "pIC50"],
 "data": [
  ["O=C(N[C@H]1CC[C@@]2(CCN(c3ccc(F)cc3Cl)C2=O)CC1)c1cnn2ccccc12", 6.55],
  ["CCN(c1ccc(F)cc1Cl)C(=O)[C@H]1CC[C@H](NC(=O)c2cnn3cccnc23)CC1", 7.24],
  ["Cc1cc(C(F)F)n2ncc(C(=O)N[C@H]3CC[C@@]4(CCN(c5ccc(F)cc5Cl)C4=O)CC3)c2n1", 7.96],
  ["CNC(=O)c1nc[nH]c1C(=O)N[C@H]1CC[C@H](C(=O)Nc2cc(C)c(F)cc2Cl)CC1", 7.51],
  ["CNC(=O)c1nc[nH]c1C(=O)N[C@H]1CC[C@]2(CCN(c3ccc(F)cc3Cl)C2=O)CC1", 6.00],
  ["O=C(N[C@H]1CC[C@H](C(=O)Nc2c(F)cc(F)cc2Cl)CC1)c1cnc2cccnn12", 7.26],
  ["Cc1cc(C2CC2)nc2c(C(=O)N[C@H]3CC[C@H](C(=O)Nc4ccc(F)cc4Cl)CC3)cnn12", 5.70],
  ["Cc1c(C(C)O)cnc2c(C(=O)N[C@H]3CC[C@H](C(=O)Nc4ccc(F)cc4Cl)CC3)cnn12 (some centres unmarked)", 6.15],
  ["CC1CCN(CCNC(=O)c2nc[nH]c2C(=O)N[C@H]2CC[C@@]3(CCN(c4ccccc4Cl)C3=O)CC2)CC1", 8.77],
  ["Cc1cc(N2CCC[C@]3(CC[C@@H](NC(=O)c4[nH]cnc4C(N)=O)CC3)C2=O)c(Cl)cc1F", 7.35]
]}

[P] Cc1cc(C)n2ncc(C(=O)N[C@H]3CC[C@]4(CCN(c5ccc(F)cc5)C4=O)CC3)c2n1
[Q] COCCNC(=O)c1nc[nH]c1C(=O)N[C@H]1CC[C@@]2(CCN(c3ccc(F)cc3Cl)C2=O)CC1
[R] O=C(NCC1CCCO1)c1nc[nH]c1C(=O)N[C@H]1CC[C@H](C(=O)Nc2cnccc2Cl)CC1 (some centres unmarked)
[S] CCNC(=O)c1nc[nH]c1C(=O)N[C@H]1CC[C@@]2(CCCN(c3cc(C)c(F)cc3Cl)C2=O)CC1
[T] Cc1nn2cccnc2c1C(=O)N[C@H]1CC[C@@]2(CCN(c3ccc(F)cc3Cl)C2=O)CC1
Ordering: ascending pIC50. Put the labels in the requested order and write them down. P, T, S, R, Q

[a] Cc1ccn2ncc(C(=O)N[C@H]3CC[C@@]4(CCN(c5ccc(F)cc5Cl)C4=O)CC3)c2n1
[b] Cc1cc(C)n2ncc(C(=O)N[C@H]3CC[C@@]4(CCN(c5cc(C)c(F)cc5Cl)C4=O)CC3)c2n1
Of a and b , which shows the smaller pIC50 value? # reply format: chosen label b
(b: 8.17, a: 8.42)

[1] O=C(N[C@H]1CC[C@@]2(CCN(c3cccc(Cl)c3)C2=O)CC1)c1cnc2cccnn12
[2] COC(C)(C)CNC(=O)c1nc[nH]c1C(=O)N[C@H]1CC[C@H](C(=O)Nc2cnccc2Cl)CC1
I need your help: which of the pair 1 , 2 has higher pIC50? # reply format: chosen label 2
(2: 7.41, 1: 6.54)

[1] O=C(N[C@H]1CC[C@H](C(=O)Nc2ccc(F)cc2Cl)CC1)c1[nH]cnc1C(=O)N1CC2(CCS2(=O)=O)C1
[2] O=C(NCC1CCCO1)c1nc[nH]c1C(=O)N[C@H]1CC[C@H](C(=O)Nc2cc(N3CCOCC3)ccc2Cl)CC1 (some centres unmarked)
Of 1 and 2 , which shows the smaller pIC50 value? # reply format: chosen label 2

[I] Cc1cc(C)n2ncc(C(=O)N[C@H]3CC[C@@]4(CCN(c5cc(F)c(F)cc5Cl)C4=O)CC3)c2n1
[II] Cc1cnc2c(C(=O)N[C@H]3CC[C@H](C(=O)Nc4ccncc4Cl)CC3)cnn2c1
I need your help: which of the pair I , II has higher pIC50? # reply format: chosen label I
(I: 8.70, II: 7.18)

[1] O=C(N[C@H]1CC[C@@]2(CCN(c3ccccn3)C2=O)CC1)c1cnn2cccnc12
[2] O=C(N[C@H]1CC[C@@]2(CCN(c3cccc(Cl)c3)C2=O)CC1)c1[nH]cnc1C(=O)N1CC(F)C1
I need your help: which of the pair 1 , 2 has higher pIC50? # reply format: chosen label 2
(2: 7.03, 1: 6.28)

[A] CN(C)c1ccn2ncc(C(=O)N[C@H]3CC[C@@]4(CCN(c5ccc(F)cc5Cl)C4=O)CC3)c2n1
[B] Cc1cc(C2CC2)n2ncc(C(=O)N[C@H]3CC[C@H](C(=O)Nc4ccc(F)cc4Cl)CC3)c2n1
I need your help: which of the pair A , B has higher pIC50? # reply format: chosen label A
(A: 8.77, B: 6.80)

[a] Cc1cc(C)n2ncc(C(=O)N[C@H]3CC[C@@]4(CCN(c5ccc(F)cc5)C4=O)CC3)c2n1
[b] CC1CCN(CCNC(=O)c2nc[nH]c2C(=O)N[C@H]2CC[C@H](C(=O)Nc3ccc(F)cc3Cl)CC2)CC1
Of a and b , which shows the smaller pIC50 value? # reply format: chosen label a
